# Tested on: KRAS-mutant PDC multicell tumor spheroid viability;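 further: viability read after seven days of drug exposure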
# measurement.description: Anticancer human tumor 521955-158-R2-J5-PDC patient-derived pancreatic carcinoma cell line growth inhibition [KRAS2]; active means viability on the fitted dose curve at most 10% of control; inactive means the rest
# test.settings: second compound 3.16 µM; first compound 0.00316 µM
# Excerpt: Multicellular complex tumor spheroid response to RAS pathway inhibitors in combination with a targeted agents in patient-derived cell lines with oncogenic KRAS variants from multiple cancer types A high-throughput screen of multi-cell type tumor spheroids was designed to identify active combinations of targeted small molecules and KRAS pathway inhibitors. […] Compounds. […] If the clinical Cmax for an agent had not been determined, the highest concentration tested was 10 microM. […]
Classes to choose from: active, inactive

Prompt line: Could you kindly confirm the outcome this assay logged for CC(C)n1nc(-c2ccc3oc(N)nc3c2)c2c(N)ncnc21 + CC1OCC2(CCN(c3cnc(Sc4ccnc(N)c4Cl)c(N)n3)CC2)C1N ?
Response line: inactive

Prompt line: Try the compound CCN1CCN(Cc2ccc(Nc3ncc(F)c(-c4cc(F)c5nc(C)n(C(C)C)c5c4)n3)nc2)CC1 + CC1OCC2(CCN(c3cnc(Sc4ccnc(N)c4Cl)c(N)n3)CC2)C1N
Response line: inactive

Prompt line: Try the compound CN(C)C/C=C/C(=O)Nc1cc2c(Nc3ccc(F)c(Cl)c3)ncnc2cc1O[C@H]1CCOC1 + C=CC(=O)N1CCN(c2nc(OCC3CCCN3C)nc3c2CCN(c2cccc4cccc(C)c24)C3)CC1CC#N
Response line: active

Prompt line: Try the compound Cn1ncnc1[C@H]1c2n[nH]c(=O)c3cc(F)cc(c23)N[C@@H]1c1ccc(F)cc1 + COc1cc2nc(C)nc(NC(C)c3cc(N)cc(C(F)(F)F)c3)c2cc1OC1CCOC1
Response line: inactive

Reference for the values: PubChem BioAssay AID1963871
